# reported pKd; entries follow
target: T1, bacterially produced human IL-6 (human, UniProt P05231 30-212); test: SPR; purified Fab
T1 construct: also called bactIL-6; prokaryotic IL-6
pKd: −log10 of the molar value.

| Binder | pKd |
| --- | --- |
| Fab 17F10 (Fab, V domains shown, Fab; also called 17F10 pur Fab 68 nM) VH: EVQLQESGPGLVKPSQTLSLTCTVSGGSIATSYYAWSWIRQPPGKGLEWMGVIDYDGDTYYKPSLKSRTSISRDTSKNQFSLQLSSVTPEDTAVYYCARAGLGDSYYLGTYYAMDYWGKGTLVTVSS VL: QAGLTQPPSVSGSPGKTVTISCAGTTSDVGTGNFVSWYQQLPGMAPKLLIYDVNKRASGIADRFSGSKSGNTASLTISGLQSEDEADYYCASYRSLNNVVFGGGTHLTVLG | 7.37 |
| Fab 41E10/35B1 (Fab, V domains shown, VL-shuffled Fab of 17F10) VH: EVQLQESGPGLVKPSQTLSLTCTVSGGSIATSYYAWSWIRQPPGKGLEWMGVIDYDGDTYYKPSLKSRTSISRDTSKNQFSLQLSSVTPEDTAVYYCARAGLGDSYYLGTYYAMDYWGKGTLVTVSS VL: QAVLTQPPSMSGTLGKTLTISCNGTSSDIGSGNYVSWYQQLPGTTPKLLIEGVTTRVSGIPDRFSGSKSDNTASLTISGLQSEDEATYYCASYRETNNVVFGGGTHLTVLG | 9.27 |
| Fab 18C7 (Fab, V domains shown, Fab; also called 18C7 (090-423)) VH: EVQLVESGPGLVKPSQTLSLTCTVSGGSITASFDAWSWIRQPPGKGLEWMGVIAYDGSTYYSPSLKSRTSISRDTSKNQFSLQLSSVTPEDTAVYYCARKSSWLIGYGMDYWGKGTLVTVSS VL: QAGLTQPSALSVTLGQTAKITCQGGSLGSSYAHWYQQKPGQAPVLVIYDDDSRPSGIPERFSGSSSGGRATLTISGAQAEDEGDYYCQSADSSGNAAVFGGGTHLTVLG | 8.04 |
| Fab 42H1/36A1 (Fab, V domains shown, VL-shuffled Fab of 18C11) VH: EVQLVESGGGLVQPGGSLRLSCAASGFTFSSYAMSWVRQAPGKGLEWVSAINSGGGSTSYADSVKGRFTISRDNAKNTLYLQMNSLKPEDTAVYYCAKEGDTGWKDPMYDYWGQGTQVTVSS VL: AQSALTQPSALSVTLGQTAKITCQGGSLGTRYAHWYQQKPGQAPVLVIYDDDSRPSGIPERFSGSSSGGRATLTISGAQAEDEGDYYCQSADSSGNASVFGGGTHLTVLG | 9.12 |

Source: patent US20220073604A1
